# Tested on: Hek293T
# method: Primary qHTS to identify gynecologic anti-cancer compounds using libraries of approved drugs and bioactive compounds (AID 1345084); further: nearly all actives have a fitted effect of over 55% in size
# experimental.parameters: Gynecologic cancer cell panel viability, ATPlite luminescence, 48 h, control line for the selectivity index; series mostly up to 57.5 µM
Records with an inconclusive call do not appear. Activity calls are given as the source filed them. The call rests on the fitted dose curve; in most records, active means well fitted cell-killing curve with a large enough effect; inconclusive means small, poorly fitted or top-dose-only effect, or effect the other way; inactive means flat fitted curve, though single readings scatter.
Your answer must be one of the following: active, inactive

>  <compound>
CC1(C)SCCN(S(=O)(=O)c2ccc(Oc3ccncc3)cc2)[C@H]1C(=O)NO

>  <assay.target>
Hek293T

>  <category.label>
inactive

$$$$

Recorded call for O=C1COC2(CCN(S(=O)(=O)c3ccc(-c4ccc5cccnc5c4)cc3)CC2)CN1C1CC1 ?
inactive

Moving on to the next compound: O=C(Nc1cc(C(F)(F)F)ccc1N1CCCCC1)c1ccncc1
inactive

Moving on to the next compound: COc1cc(N2CCC(O)CC2)ccc1Nc1nc(Nc2ccccc2S(=O)(=O)C(C)C)c2[nH]cnc2n1
inactive

Moving on to the next compound: COc1c(CCC(=O)O)cccc1O[C@@H]1O[C@H](CO)[C@@H](O)[C@H](O)[C@H]1O
inactive

Moving on to the next compound: O=C(NCCN1CCC(n2c(=O)[nH]c3ccccc32)CC1)c1cc2cc(F)ccc2[nH]1
inactive

Moving on to the next compound: Cc1ccc(-c2c(C(=O)CCl)n(CCCO)c3ncnc(N)c23)cc1
inactive

// provenance: PubChem BioAssay (NCATS)
